- assay target: LCK (human)
- protocol text: radiometric filter-binding kinase assay
- setup conditions: compound 10.0 µM; ATP 100 µM
readout name: residual activity (%)
Provide only the numeric value, understood in %.

Examples with answers:
Cc1ccc(-c2nn(C(C)(C)C)c3ncnc(N)c23)cc1; 0
O=C1Cc2c([nH]c3ccc([N+](=O)[O-])cc23)-c2ccccc2N1; 19
O=C1c2ccccc2-c2n[nH]c3cccc1c23; 53

Turning now to a further compound:
*Q* # return residual activity of `O=C(O[C@@H]1Cc2c(O)cc(O)cc2O[C@@H]1c1cc(O)c(O)c(O)c1)c1cc(O)c(O)c(O)c1` (system: LCK (human))
*A* 89

The measured values listed here are drawn from the kinase profiling compilation of Christmann-Franck et al. (2016).
